Value source: patent US20260248892A1

Target: human insulin receptor isoform B (human, UniProt P06213 28-1382)
Assay: cell-based or functional assay
readout type: hIR-B-phosphorylation [EC50 nM] mean (nM)
Response body: numeric value in nM, unit text excluded.

>>> assay_result("scl-Fc fusion protein INS013 (Fc fusion) FVNQHLCGSHLVEALHLVCGERGFHYTPKTGSYPGGVGIVEQCCTSICSLSQLEDYCGGEAEDLQVGQVELGGGPGAGSLQPEGSLQGGPSVFLFPPKPKDTLMISRTPEVTCVVVDVSHEDPEVKFNWYVDGVEVHNAKTKPREEQYNSTYRVVSVLTVLHQDWLNGKEYKCKVSNKALPAPIEKTISKAKGQPREPQVYTLPPSRDELTKNQVSLTCLVKGFYPSDIAVEWESNGQPENNYKTTPPVLDSDGSFFLYSKLTVDKSRWQQGNVFSCSVMHEALHNHYTQKSLSLSPGGGGGSAESKYGPPCPPCPA")
57.2
>>> assay_result("scl-Fc fusion protein INS012 (Fc fusion) FVNQHLCGSHLVEALHLVCGERGFHYTPKTEEYPGDVGIVEQCCTSICSLSQLEDYCGGEAEDLQVGQVELGGGPGAGSLQPEGSLQGGPSVFLFPPKPKDTLMISRTPEVTCVVVDVSHEDPEVKFNWYVDGVEVHNAKTKPREEQYNSTYRVVSVLTVLHQDWLNGKEYKCKVSNKALPAPIEKTISKAKGQPREPQVYTLPPSRDELTKNQVSLTCLVKGFYPSDIAVEWESNGQPENNYKTTPPVLDSDGSFFLYSKLTVDKSRWQQGNVFSCSVMHEALHNHYTQKSLSLSPGGGGGSAESKYGPPCPPCPA")
178
>>> assay_result("scl-Fc fusion protein INS007 (Fc fusion) SFVNQHLCGSHLVEALHLVCGERGFAYTDKTGSYPGGVGIVEQCCTSICSLEQLENYCGGEAEDLQVGQVELGGGPGAGSLQPEGSLQGGPSVFLFPPKPKDTLMISRTPEVTCVVVDVSHEDPEVKFNWYVDGVEVHNAKTKPREEQYNSTYRVVSVLTVLHQDWLNGKEYKCKVSNKALPAPIEKTISKAKGQPREPQVYTLPPSRDELTKNQVSLTCLVKGFYPSDIAVEWESNGQPENNYKTTPPVLDSDGSFFLYSKLTVDKSRWQQGNVFSCSVMHEALHNHYTQKSLSLSPGGGGGSAESKYGPPCPPCPA")
57.3

The record that follows has no hIR-B-phosphorylation [EC50 nM] mean shown yet.
I'd like to know its hIR-B-phosphorylation [EC50 nM] mean. The binder in question is scl-Fc fusion protein INS018 (Fc fusion) FVNQHLCGSHLVEALELVCGERGFHYTPKTGSYPGGVGIVEQCCTSICSLSQLEDYCGGEAEDLQVGQVELGGGPGAGSLQPEGSLQGGPSVFLFPPKPKDTLMISRTPEVTCVVVDVSHEDPEVKFNWYVDGVEVHNAKTKPREEQYNSTYRVVSVLTVLHQDWLNGKEYKCKVSNKALPAPIEKTISKAKGQPREPQVYTLPPSRDELTKNQVSLTCLVKGFYPSDIAVEWESNGQPENNYKTTPPVLDSDGSFFLYSKLTVDKSRWQQGNVFSCSVMHEALHNHYTQKSLSLSPGGGGGSAESKYGPPCPPCPA
260
